# Test system: A549 cells
# Measurement description: Clonogenic assay
# Type: cell-based, human
# Condition notes: Homo sapiens
pIC50: −log10 of the molar value.
The entries below are paired with their reported pIC50.
Metric: pIC50

| Structure | Metric | Recorded measurement |
| --- | --- | --- |
| CC(=O)c1ccc2c(c1)N(CCCN(C)C)c1ccccc1S2 | pIC50 | 5.60 to 6.00 |
| CN1CCN(CCCN2c3ccccc3Sc3ccc(C(F)(F)F)cc32)CC1 | pIC50 | 5.60 to 5.90 |

----------
# Test system: CL83 cells
# Measurement description: MTT assay (cell viability)
# Format: cell-based
# Condition notes: Homo sapiens; CL83 cell line, 48 hour incubation; read-out: IC50 for trifluoperazine
Metric: IC50 (µM)

| Compound | Study target | Scale unit | Recorded measurement |
| --- | --- | --- | --- |
| CN1CCN(CCCN2c3ccccc3Sc3ccc(C(F)(F)F)cc32)CC1 [Trifluoperazine] | CL83 cells | µM | 14 |

Source listed as patent US20140294994A1.
